- procedure.text: small-molecule microarray binders of probe aEGFR, primary screen, biochemical, biotinylated probe, 635/667 nm fluorescence (AID 1097);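 also: probe is a biotinylated anti-EGFR antibody binding compounds printed on slides; score combines fluorescence near 667 nm and signal to noise of each spot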
- setup.conditions: higher = more signal

>  <molecular.string>
CCCCCCc1nc(-c2ccc(OC)nc2)cc2c1[Si](C(C)C)(C(C)C)OC2

>  <composite z-score>
-0.24

$$$$
>  <molecular.string>
O=C1c2ccccc2[C@@]2(Cc3ccccc3N(Cc3ccccc3)C2=O)[C@H](c2ccc(CO)cc2)N1Cc1ccccc1

>  <composite z-score>
-0.218

$$$$
>  <molecular.string>
CO[C@H]1O[C@H](CO)[C@@H](OC(=O)Nc2ccc3c(c2)OCO3)[C@@H]2OC(=O)[C@@H](Cc3ccccc3)C/C=C/C[C@H](Cc3ccccc3)C(=O)O[C@@H]12

>  <composite z-score>
0.0528

$$$$

----------
- Test system: Sam68 (KHDRBS1)
- procedure.text: Sam68 small-molecule binders, primary screen, biochemical, small-molecule microarray, 635 nm fluorescence (AID 1125);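 also: score merges 667 nm channel intensity with signal to noise over triplicate slides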
- setup.conditions: small-molecule microarray binding, higher = more signal

>  <molecule>
COCCOC(=O)N1C(=O)[C@@]2(c3cc(C#CC4=CCCCC4)ccc31)[C@H](c1ccc(OCCO)cc1)N1[C@H](c3ccccc3)[C@H](c3ccccc3)OC(=O)[C@H]1[C@@H]2C(=O)N1CCCCCCC1

>  <target.or.system>
Sam68 (KHDRBS1)

>  <composite z-score>
1.3

$$$$
>  <molecule>
COc1cc2c(cc1O)C(C1CC1)N(Cc1ccc([N+](=O)[O-])o1)CC2 (centres undefined)

>  <target.or.system>
Sam68 (KHDRBS1)

>  <composite z-score>
0.835

$$$$
>  <molecule>
C=CCNC(=O)[C@@H]1[C@H]2C(=O)O[C@H](c3ccccc3)[C@H](c3ccccc3)N2[C@H](c2ccccc2OCCO)[C@@]12C(=O)N(C(=O)OCCOC)c1ccc(C#CCCO)cc12

>  <target.or.system>
Sam68 (KHDRBS1)

>  <composite z-score>
1.29

$$$$
>  <molecule>
CCCC=C(CCC)[C@@H](NC(=O)c1ccccc1)c1ccc(C(=O)OC)cc1

>  <target.or.system>
Sam68 (KHDRBS1)

>  <composite z-score>
0.823

$$$$

----------
- procedure.text: inhibitors of hydroxyurea-induced Chk1 phosphorylation, primary screen, imaging, HeLa, phospho-Chk1 nuclear intensity (AID 1187); also: test concentration not given here
- setup.conditions: hydroxyurea-induced phospho-Chk1 immunofluorescence imaging, higher = more signal
property: z-score

>  <compound>
COCCOC(=O)N1C(=O)[C@@]2(c3cc(C#Cc4ccc(OC)cc4)ccc31)[C@H](c1ccc(OCCO)cc1)N1[C@H](c3ccccc3)[C@H](c3ccccc3)OC(=O)[C@H]1[C@@H]2C(=O)N1CCCCCCC1

>  <assay.value>
-0.217

$$$$
>  <compound>
O=C1O[C@H](c2ccccc2)[C@H](c2ccccc2)N2[C@H]1[C@@H](C(=O)NC[C@H](O)c1ccccc1)[C@]1(C(=O)Nc3ccc(C#CCCO)cc31)[C@H]2c1ccccc1OCCO

>  <assay.value>
0.46

$$$$
>  <compound>
C=CCOC(=O)[C@H]1[C@@H]2C(=O)O[C@@H](c3ccccc3)[C@@H](c3ccccc3)N2[C@@H](c2ccc(OCCOC(=O)[C@@H]3C[C@@H]4C(=O)N[C@@H](CC(C)C)C(=O)N4[C@@H]3c3ccc(O)cc3)cc2)[C@]12C(=O)Nc1ccc(I)cc12

>  <assay.value>
0.112

$$$$
>  <compound>
CC(c1ccccc1)C(O)C1C=CC2C(=O)N(c3ccccc3)C(=O)C2N1Nc1ccc(C#N)cc1 (centres undefined)

>  <assay.value>
0.313

$$$$
